- Tested on: Endogenous Huntingtin Protein
- measurement_protocol: Endogenous Huntingtin Protein Assay (Meso Scale Discovery ELISA-based electrochemiluminescence)
- Format: cell-based
- condition_context: MSD plates coated with MW1 (expanded polyglutamine) or MAB2166 capture antibody; lysates
pIC50: −log10 of the molar value.
Listed next: entries and their corresponding pIC50.

For orientation, consider the following solved cases.
1) CC1(C)CC(n2nnc3cc(-c4ccc(-c5ccn6ncnc6c5)cc4O)nnc32)CC(C)(C)N1    6.30 to 7.00
2) CCn1ncc(-c2ccc(-c3cc4nnn(C5CC(C)(C)NC(C)(C)C5)c4nn3)c(O)c2)c1F    5.52 to 6.00
3) Cn1ccc(-c2cc(O)c(-c3cc4nnn(C5CC(C)(C)NC(C)(C)C5)c4nn3)cc2F)cc1=O    6.30 to 7.00

Answer with the recorded pIC50 for the compound listed here: "CC1(C)CC(n2nnc3cc(-c4ccc(-n5ccnn5)cc4O)nnc32)CC(C)(C)N1"
6.30 to 7.00

Recall and state the measured pIC50 for "Cn1cc(-c2ccc(-c3cc4nnn(C5CC(C)(C)NC(C)(C)C5)c4nn3)c(O)c2)c(C#N)n1" .
6.00 to 6.30

Assign pIC50 to the following record: "CC1(C)CC(n2ccc3nc(-c4cc(F)c(-c5cn[nH]c5)cc4F)cnc32)CC(C)(C)N1"
6.30 to 7.00

Provide only the value of recorded pIC50 for "CC1(C)CC(n2ccc3cc(-c4ncc(-c5cn[nH]c5)cc4O)nnc32)CC(C)(C)N1"
≥ 7.00

For C[C@]12CC[C@](C)(CC(n3nnc4cc(-c5ccc(-c6cn[nH]c6)cc5O)nnc43)C1)N2 (some centres unmarked) , write its pIC50.
≥ 7.00
